The origin of these recorded values is PubChem BioAssay AID1918991.

- System: 186277-243-T-J2-PDC complex spheroid growth
- method.summary: Anticancer human tumor 186277-243-T-J2-PDC patient-derived colon adenocarcinoma cell line growth inhibition [AhR]
- test.context: curve of first compound; second compound 10 µM
pIC50: −log10 of the molar value.
Recorded pIC50 by entry

Consider the following illustrative entries.
>  <compound>
CC(C)CC(NC(=O)C(Cc1ccccc1)NC(=O)c1cnccn1)B(O)O (centres undefined) + Cc1cncc(-c2nc(NCCc3c[nH]c4ccccc34)c3ncn(C(C)C)c3n2)c1

>  <readout.value>
> 9.02

$$$$
>  <compound>
CC1(C)CCC(CN2CCN(c3ccc(C(=O)NS(=O)(=O)c4ccc(NCC5CCOCC5)c([N+](=O)[O-])c4)c(Oc4cnc5[nH]ccc5c4)c3)CC2)=C(c2ccc(Cl)cc2)C1 + Cc1cncc(-c2nc(NCCc3c[nH]c4ccccc34)c3ncn(C(C)C)c3n2)c1

>  <readout.value>
< 5.00

$$$$
>  <compound>
COc1cc(Nc2ncc3c(n2)-c2ccc(Cl)cc2C(c2c(F)cccc2OC)=NC3)ccc1C(=O)O + Cc1ccccc1N=Nc1ccc(NC(=O)c2ccnn2C)c(C)c1

>  <readout.value>
< 5.00

$$$$
>  <compound>
COc1cc(C2c3cc4c(cc3C(OC3OC5COC(C)OC5C(O)C3O)C3COC(=O)C23)OCO4)cc(OC)c1O (centres undefined) + Cc1cncc(-c2nc(NCCc3c[nH]c4ccccc34)c3ncn(C(C)C)c3n2)c1

>  <readout.value>
7.31

$$$$
>  <compound>
COc1ccc([C@@H](O)c2cc(-c3ncnc4cc(N5CCOCC5)ccc34)c(F)cc2Cl)nn1 + CC(CO)NC(=O)c1cc(-c2ccc(Cl)cc2)nn(-c2cnn(C)c2)c1=O

>  <readout.value>
5.79

$$$$
>  <compound>
COc1cc(C2c3cc4c(cc3C(OC3OC5COC(C)OC5C(O)C3O)C3COC(=O)C23)OCO4)cc(OC)c1O (centres undefined) + Cc1ccccc1N=Nc1ccc(NC(=O)c2ccnn2C)c(C)c1

>  <readout.value>
5.13

$$$$

Asked: Record Nc1ncn(C2CC(O)C(CO)O2)c(=O)n1 (centres undefined) + CC(CO)NC(=O)c1cc(-c2ccc(Cl)cc2)nn(-c2cnn(C)c2)c1=O : what is its pIC50 with 186277-243-T-J2-PDC complex spheroid growth?
Given back: < 6.00

Asked: One more compound: CC(C)c1c(-c2ccccc2)nc2c(C#N)c[nH]n2c1=O + Cc1ccccc1N=Nc1ccc(NC(=O)c2ccnn2C)c(C)c1
Given back: < 5.00

Asked: One more compound: CC(C)c1c(-c2ccccc2)nc2c(C#N)c[nH]n2c1=O + Cc1cncc(-c2nc(NCCc3c[nH]c4ccccc34)c3ncn(C(C)C)c3n2)c1
Given back: > 7.50

----------
- System: 186277-243-T-J2-PDC complex spheroid growth
- method.summary: Anticancer human tumor 186277-243-T-J2-PDC cell line growth inhibition [AhR];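 further: spheroids exposed to compounds for seven days before the viability read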;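 on viability, T/C: luminescent signal used as a stand-in for viable cell amount; 100% = DMSO vehicle control wells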
- test.context: second compound 10 µM; first compound 0.1 µM; stronger effect = lower value
- Source text: Multicellular complex tumor spheroid response to aryl hydrocarbon receptor antagonists in combination with a variety of drugs and investigational agents in selected tumor cell lines […] Compounds. […] If the clinical Cmax for an agent had not been determined, the highest concentration tested was 10 microM (Table 1). […]
measure: viability, T/C

Consider the following illustrative entries.
>  <compound>
CC(C)c1c(-c2ccccc2)nc2c(C#N)c[nH]n2c1=O + Cc1ccccc1N=Nc1ccc(NC(=O)c2ccnn2C)c(C)c1

>  <target.or.system>
186277-243-T-J2-PDC complex spheroid growth

>  <measure>
viability, T/C

>  <readout.value>
97.2%

$$$$
>  <compound>
NS(=O)(=O)OCC1CC(n2ccc3c(NC4CCc5ccccc54)ncnc32)CC1O (centres undefined) + CC(CO)NC(=O)c1cc(-c2ccc(Cl)cc2)nn(-c2cnn(C)c2)c1=O

>  <target.or.system>
186277-243-T-J2-PDC complex spheroid growth

>  <measure>
viability, T/C

>  <readout.value>
53.2%

$$$$
>  <compound>
O=C(c1cc(Cc2n[nH]c(=O)c3ccccc23)ccc1F)N1CCN(C(=O)C2CC2)CC1 + Cc1ccccc1N=Nc1ccc(NC(=O)c2ccnn2C)c(C)c1

>  <target.or.system>
186277-243-T-J2-PDC complex spheroid growth

>  <measure>
viability, T/C

>  <readout.value>
86.1%

$$$$
>  <compound>
Cn1ncnc1C1c2n[nH]c(=O)c3cc(F)cc(c23)NC1c1ccc(F)cc1 (centres undefined) + Cc1ccccc1N=Nc1ccc(NC(=O)c2ccnn2C)c(C)c1

>  <target.or.system>
186277-243-T-J2-PDC complex spheroid growth

>  <measure>
viability, T/C

>  <readout.value>
98.7%

$$$$
>  <compound>
COc1ccc([C@@H](O)c2cc(-c3ncnc4cc(N5CCOCC5)ccc34)c(F)cc2Cl)nn1 + Cc1ccccc1N=Nc1ccc(NC(=O)c2ccnn2C)c(C)c1

>  <target.or.system>
186277-243-T-J2-PDC complex spheroid growth

>  <measure>
viability, T/C

>  <readout.value>
81.9%

$$$$
>  <compound>
COc1cc(C2c3cc4c(cc3C(OC3OC5COC(C)OC5C(O)C3O)C3COC(=O)C23)OCO4)cc(OC)c1O (centres undefined) + CC(CO)NC(=O)c1cc(-c2ccc(Cl)cc2)nn(-c2cnn(C)c2)c1=O

>  <target.or.system>
186277-243-T-J2-PDC complex spheroid growth

>  <measure>
viability, T/C

>  <readout.value>
47.4%

$$$$

Asked: Field request: viability, T/C | item: NS(=O)(=O)OCC1CC(n2ccc3c(NC4CCc5ccccc54)ncnc32)CC1O (centres undefined) + Cc1ccccc1N=Nc1ccc(NC(=O)c2ccnn2C)c(C)c1
Given back: 80%

Asked: One more compound: Nc1ncn(C2CC(O)C(CO)O2)c(=O)n1 (centres undefined) + CC(CO)NC(=O)c1cc(-c2ccc(Cl)cc2)nn(-c2cnn(C)c2)c1=O
Given back: 79%

Asked: One more compound: CC1COCCN1c1cc(C2(S(C)(=N)=O)CC2)nc(-c2ccnc3[nH]ccc23)n1 (centres undefined) + Cc1ccccc1N=Nc1ccc(NC(=O)c2ccnn2C)c(C)c1
Given back: 87.2%

Asked: One more compound: COc1cc(Nc2ncc3c(n2)-c2ccc(Cl)cc2C(c2c(F)cccc2OC)=NC3)ccc1C(=O)O + Cc1ccccc1N=Nc1ccc(NC(=O)c2ccnn2C)c(C)c1
Given back: 104%

Asked: One more compound: Nc1ccn(C2OC(CO)C(O)C2(F)F)c(=O)n1 (centres undefined) + CC(CO)NC(=O)c1cc(-c2ccc(Cl)cc2)nn(-c2cnn(C)c2)c1=O
Given back: 5.79%

Asked: One more compound: COc1cccc2c1C(=O)c1c(O)c3c(c(O)c1C2=O)CC(O)(C(=O)CO)CC3OC1CC(N)C(O)C(C)O1 (centres undefined) + Cc1ccccc1N=Nc1ccc(NC(=O)c2ccnn2C)c(C)c1
Given back: 120%

Asked: One more compound: CC1COCCN1c1cc(-c2ccnn2C)c2ccnc(-c3ccn[nH]3)c2n1 (centres undefined) + CC(CO)NC(=O)c1cc(-c2ccc(Cl)cc2)nn(-c2cnn(C)c2)c1=O
Given back: 6.38%

Asked: One more compound: O=C(C=Cc1cccc(S(=O)(=O)Nc2ccccc2)c1)NO + Cc1ccccc1N=Nc1ccc(NC(=O)c2ccnn2C)c(C)c1
Given back: 97.8%

Asked: One more compound: CC1(C)CCC(CN2CCN(c3ccc(C(=O)NS(=O)(=O)c4ccc(NCC5CCOCC5)c([N+](=O)[O-])c4)c(Oc4cnc5[nH]ccc5c4)c3)CC2)=C(c2ccc(Cl)cc2)C1 + Cc1ccccc1N=Nc1ccc(NC(=O)c2ccnn2C)c(C)c1
Given back: 82.5%

Asked: One more compound: COc1cc(C2c3cc4c(cc3C(OC3OC5COC(C)OC5C(O)C3O)C3COC(=O)C23)OCO4)cc(OC)c1O (centres undefined) + Cc1ccccc1N=Nc1ccc(NC(=O)c2ccnn2C)c(C)c1
Given back: 104%

Asked: One more compound: Cn1ncnc1C1c2n[nH]c(=O)c3cc(F)cc(c23)NC1c1ccc(F)cc1 (centres undefined) + CC(CO)NC(=O)c1cc(-c2ccc(Cl)cc2)nn(-c2cnn(C)c2)c1=O
Given back: 56%

Asked: One more compound: Cn1ncnc1C1c2n[nH]c(=O)c3cc(F)cc(c23)NC1c1ccc(F)cc1 (centres undefined) + Cc1cncc(-c2nc(NCCc3c[nH]c4ccccc34)c3ncn(C(C)C)c3n2)c1
Given back: 68%

Asked: One more compound: O=C(C=Cc1cccc(S(=O)(=O)Nc2ccccc2)c1)NO + Cc1cncc(-c2nc(NCCc3c[nH]c4ccccc34)c3ncn(C(C)C)c3n2)c1
Given back: 67.9%

Asked: One more compound: COc1cc(Nc2ncc3c(n2)-c2ccc(Cl)cc2C(c2c(F)cccc2OC)=NC3)ccc1C(=O)O + Cc1cncc(-c2nc(NCCc3c[nH]c4ccccc34)c3ncn(C(C)C)c3n2)c1
Given back: 27.4%

Asked: One more compound: Nc1ccccc1NC(=O)c1ccc(CNC(=O)OCc2cccnc2)cc1 + CC(CO)NC(=O)c1cc(-c2ccc(Cl)cc2)nn(-c2cnn(C)c2)c1=O
Given back: 68.8%

Asked: One more compound: COc1ccc([C@@H](O)c2cc(-c3ncnc4cc(N5CCOCC5)ccc34)c(F)cc2Cl)nn1 + CC(CO)NC(=O)c1cc(-c2ccc(Cl)cc2)nn(-c2cnn(C)c2)c1=O
Given back: 72.6%

Asked: One more compound: Nc1ncn(C2CC(O)C(CO)O2)c(=O)n1 (centres undefined) + Cc1ccccc1N=Nc1ccc(NC(=O)c2ccnn2C)c(C)c1
Given back: 109%

Asked: One more compound: CC1COCCN1c1cc(-c2ccnn2C)c2ccnc(-c3ccn[nH]3)c2n1 (centres undefined) + Cc1ccccc1N=Nc1ccc(NC(=O)c2ccnn2C)c(C)c1
Given back: 33.7%
